biological target: XylR (Mycolicibacterium smegmatis); experiment: isothermal titration calorimetry; conditions: 20 mM Tris-base, 100 mM NaCl, 5 mM MgCl2, pH 7.5; 35 μM XylR; independent-site model, n = 1.09 ± 0.04
Sequence (A0R508 1-393): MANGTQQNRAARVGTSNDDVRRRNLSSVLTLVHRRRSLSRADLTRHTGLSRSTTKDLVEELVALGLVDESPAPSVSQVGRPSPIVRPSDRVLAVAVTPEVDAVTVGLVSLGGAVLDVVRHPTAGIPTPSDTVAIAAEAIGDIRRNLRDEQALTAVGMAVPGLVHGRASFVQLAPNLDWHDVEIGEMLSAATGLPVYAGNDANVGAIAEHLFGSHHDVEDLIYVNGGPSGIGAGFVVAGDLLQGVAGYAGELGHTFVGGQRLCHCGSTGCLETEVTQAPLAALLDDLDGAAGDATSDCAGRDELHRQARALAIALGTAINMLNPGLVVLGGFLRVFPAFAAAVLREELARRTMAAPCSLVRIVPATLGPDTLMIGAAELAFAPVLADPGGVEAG
parameter_measured: pKd
Give only the number. pKd is defined as minus log10 of concentration in molar units.

Data request: Write down the reported pKd of OC1OC[C@@H](O)[C@H](O)[C@H]1O (stereo partly shown) , test system: XylR (Mycolicibacterium smegmatis).
Data returned: 5.33
